B1: PDS5B (parent)
chain: IYKKYALQSAAGKDAAKQIAWIKD

variants of: B1; assay: protein stability index of a GFP-peptide fusion (GPS, HEK-293T) (PSI 1-6); higher = more stable; settings: c terminus: a fixed tail appended;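 further: lentivirally expressed fusions sorted by FACS into six bins by GFP to DsRed ratio, PSI derived from sequencing read proportions per bin multiplied by bin number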
# binarize protein stability index: threshold 2 inclusive, high side 1, low side 0

variantAnnotation | class
K3P | 1
K13H | 1
K3L | 1
Y5Q | 1
K23R | 0
K4D | 1
L7Q | 1
L7R | 1
Y5I | 1
K4I | 1
S9V | 1
K13W | 0
A6C | 0
A10F | 0
D14G | 1
Y2L | 1
K3N | 1
I1M | 1
G12I | 0
W21P | 1
K3R | 1
K3I | 1
A6T | 1
Y2E | 1
A10H | 0
A15P | 1
K4F | 1
